# SUBJECT OF TEST: GRIP2_7, Q9C0E4
# Sequence (Q9C0E4 934-1023): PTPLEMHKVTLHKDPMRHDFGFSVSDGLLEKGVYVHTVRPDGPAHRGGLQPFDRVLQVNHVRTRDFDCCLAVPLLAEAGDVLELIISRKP
# TEST NAME: holdup assay
# Parameters: key: below the threshold = too weak to quantify, mostly under pKd 3.1 to 4
# PROTOCOL CONDITIONS: plain residues with an end cap or a label only (N-terminal biotin on a linker: ado-ado)
ASSAY READOUT: pKd

BINDER	MEAS VALUE
NHSSSPETTA [TRMT13, Q9NUP7]	below the threshold
VNKSKLLTDV [KCNA1, Q09470]	below the threshold
FNSYSLTGYV [CLDN2, P57739]	below the threshold
PAPSSGKDYV [CLDN1, O95832]	3.63
QSARLWETSI [ADAM22, Q9P0K1]	below the threshold
YYKRPVQEWV [MMP24, Q9Y5R2]	4.32
SAAKVLTSMC [GHRHR, Q02643]	below the threshold

Give its pKd value. Item: SGSLKLMTTV [DACT1, Q9NYF0]
below the threshold
